Biological target: HDAC1 (Homo sapiens, UniProt Q13547)
Sequence (Q13547 whole entry): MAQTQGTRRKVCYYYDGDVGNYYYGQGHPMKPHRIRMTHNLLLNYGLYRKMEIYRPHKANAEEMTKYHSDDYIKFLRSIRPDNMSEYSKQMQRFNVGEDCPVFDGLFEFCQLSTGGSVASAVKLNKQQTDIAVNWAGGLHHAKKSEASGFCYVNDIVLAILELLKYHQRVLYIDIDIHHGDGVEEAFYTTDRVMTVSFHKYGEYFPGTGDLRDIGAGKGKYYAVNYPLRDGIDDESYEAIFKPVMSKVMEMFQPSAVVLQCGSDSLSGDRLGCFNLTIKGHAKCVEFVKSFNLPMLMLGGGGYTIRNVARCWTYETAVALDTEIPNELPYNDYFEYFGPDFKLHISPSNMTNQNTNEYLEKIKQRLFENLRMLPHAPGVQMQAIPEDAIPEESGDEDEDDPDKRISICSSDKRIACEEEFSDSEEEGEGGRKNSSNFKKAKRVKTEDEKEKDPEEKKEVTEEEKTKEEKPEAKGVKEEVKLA

| structure as smiles | IC50 |
| --- | --- |
| CCOc1cccc(OCCN(C)C)c1C(=O)Nc1ccc(Cl)c(C(F)(F)F)c1 | > 200 µM |

====

Target chain: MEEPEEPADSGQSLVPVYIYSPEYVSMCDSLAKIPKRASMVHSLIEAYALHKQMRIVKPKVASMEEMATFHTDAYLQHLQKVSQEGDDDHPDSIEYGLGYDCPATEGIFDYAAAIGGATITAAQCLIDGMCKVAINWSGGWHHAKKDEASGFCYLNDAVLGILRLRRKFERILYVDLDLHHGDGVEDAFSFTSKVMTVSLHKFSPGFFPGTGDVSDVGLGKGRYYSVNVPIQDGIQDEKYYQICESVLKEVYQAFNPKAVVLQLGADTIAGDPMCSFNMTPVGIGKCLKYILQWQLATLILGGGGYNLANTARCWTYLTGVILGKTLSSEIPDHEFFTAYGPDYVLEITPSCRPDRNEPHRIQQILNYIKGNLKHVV
reported property: IC50

| structure as smiles | assay value |
| --- | --- |
| CCOc1cccc(OCCN(C)C)c1C(=O)Nc1ccc(Cl)c(C(F)(F)F)c1 | > 200 µM |

====

Protein target, amino acids: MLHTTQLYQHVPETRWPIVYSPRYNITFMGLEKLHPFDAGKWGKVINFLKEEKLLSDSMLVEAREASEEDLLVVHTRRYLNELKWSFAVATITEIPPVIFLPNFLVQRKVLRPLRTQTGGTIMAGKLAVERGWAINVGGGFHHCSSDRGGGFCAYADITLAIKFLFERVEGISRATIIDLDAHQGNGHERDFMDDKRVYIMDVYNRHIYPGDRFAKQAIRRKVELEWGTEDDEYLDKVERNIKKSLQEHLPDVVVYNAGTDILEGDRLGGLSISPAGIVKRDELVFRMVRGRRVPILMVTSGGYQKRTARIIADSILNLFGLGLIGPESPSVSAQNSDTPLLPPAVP
pIC50: −log10 of the molar value.

| structure as smiles | pIC50 |
| --- | --- |
| CCOc1cccc(OCCN(C)C)c1C(=O)Nc1ccc(Cl)c(C(F)(F)F)c1 | < 3.70 |
